Measured values drawn from ChEMBL document CHEMBL1177877 for this set.

Tested on: Mycobacterium tuberculosis
Assay: Antimycobacterial activity against Mycobacterium tuberculosis H37Rv
Format: functional, organism-based
experimental.endpoint: IC50 (µg/mL)
Provide only the numeric value, understood in µg/mL.

Field: example entries. Status: answers known.
[[record]]
compound_smiles = "N=c1c2ncnc(Nc3ccccc3)c2ncn1NC(=O)c1ccncc1"
numeric_readout = 4.3

[[record]]
compound_smiles = "CC(=O)Nn1cnc2c(Nc3ccc(F)cc3)ncnc2c1=N"
numeric_readout = 18.7

[[record]]
compound_smiles = "COc1ccc(Nc2ncnc3c(=N)n(NC(=O)c4ccccc4)cnc23)cc1"
numeric_readout = 4.11


Here is the next item to consider.
Req: Indicate its recorded IC50; the compound in question is `COc1ccc(Nc2ncnc3c(=N)n(NC(C)=O)cnc23)cc1`
Resp: 46.5
